The values you see were collected from patent US8883963B2.

- experimental system: Human GLP-1 receptor (Homo sapiens)
- Construct: The full-length cDNA was cloned in pcDNA3.1(+); expressed in transfected cells
- Sequence (P43220 24-463): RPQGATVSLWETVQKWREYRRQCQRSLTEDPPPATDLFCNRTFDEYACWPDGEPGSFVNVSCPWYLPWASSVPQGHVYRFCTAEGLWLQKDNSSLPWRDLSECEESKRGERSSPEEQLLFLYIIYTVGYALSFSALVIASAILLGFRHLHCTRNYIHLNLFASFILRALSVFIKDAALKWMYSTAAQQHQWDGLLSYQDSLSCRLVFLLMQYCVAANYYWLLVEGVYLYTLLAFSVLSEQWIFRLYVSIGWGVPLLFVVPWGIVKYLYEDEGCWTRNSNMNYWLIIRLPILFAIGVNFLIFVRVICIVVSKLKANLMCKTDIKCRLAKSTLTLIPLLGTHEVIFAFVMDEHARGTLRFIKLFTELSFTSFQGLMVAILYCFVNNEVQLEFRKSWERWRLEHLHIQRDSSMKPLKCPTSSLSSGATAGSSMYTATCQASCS
- procedure summary: In vitro Human GLP-1 R agonist activity (cyclic AMP determination) in CHO/human GLP1R cells
- Type: cell-based
- condition notes: 10 nM test compound
Label Not satisfied if Human GLP-1 R activity (cAMP release), % activity with respect to control falls below 90%; label Satisfied in every other case.

>>> discrete_label("CCc1cc(OC)ccc1-c1ccc(CC(NC(=O)[C@H](CC(=O)O)NC(=O)[C@H](CO)NC(=O)[C@@H](NC(=O)C(C)(Cc2ccccc2F)NC(=O)[C@@H](NC(=O)CNC(=O)C(CCC#N)NC(=O)C(C)(C)NC(=O)[C@@H](N)Cc2c[nH]cn2)[C@H](C)O)[C@H](C)O)C(=O)NC(CCCc2ccccc2)C(N)=O)cc1 (single isomer, unassigned)")
"Not satisfied"
>>> discrete_label("CCc1cc(OC)ccc1-c1ccc(CC(NC(=O)[C@H](CC(=O)O)NC(=O)[C@H](CO)NC(=O)[C@@H](NC(=O)[C@H](Cc2ccccc2)NC(=O)[C@@H](NC(=O)CNC(=O)[C@H](CCC(N)=O)NC(=O)C(C)(C)NC(=O)[C@@H](N)Cc2c[nH]cn2)[C@@H](C)O)[C@@H](C)O)C(=O)NC(CCCc2ccc(OC)cc2Cl)C(N)=O)cc1 (single isomer, unassigned)")
"Not satisfied"
>>> discrete_label("CCc1cc(OC)ccc1-c1ccc(CC(CNC(CCCc2ccccc2)C(N)=O)NC[C@H](CC(=O)O)NC(=O)[C@H](CO)NC(=O)[C@@H](NC(=O)C(C)(Cc2ccccc2F)NC(=O)[C@@H](NC(=O)CNC(=O)C(CCC#N)NC(=O)C(C)(C)NC(=O)[C@@H](N)Cc2c[nH]cn2)[C@H](C)O)[C@H](C)O)cc1 (single isomer, unassigned)")
"Satisfied"
>>> discrete_label("CCc1cc(OC)ccc1-c1ccc(CC(NC(=S)[C@H](CC(=O)O)NC(=O)[C@H](CO)NC(=O)[C@@H](NC(=O)C(C)(Cc2ccccc2F)NC(=O)[C@@H](NC(=O)CNC(=O)C(CCC#N)NC(=O)C(C)(C)NC(=O)[C@@H](N)Cc2c[nH]cn2)[C@H](C)O)[C@H](C)O)C(=S)NC(CCCc2ccccc2)C(N)=O)cc1 (single isomer, unassigned)")
"Not satisfied"
>>> discrete_label("CCc1cc(OC)ccc1-c1ccc(CC(NC(=O)[C@H](CC(=O)O)NC(=O)[C@H](CO)NC(=O)[C@@H](NC(=O)C(C)(Cc2ccccc2F)NC(=O)[C@@H](NC(=O)CNC(=O)C(CCC#N)NC(=O)C(C)(C)NC(=O)[C@@H](N)Cc2c[nH]cn2)[C@H](C)O)[C@H](C)O)C(=S)NC(CCCc2ccccc2F)C(N)=O)cc1 (single isomer, unassigned)")
"Satisfied"
>>> discrete_label("CCc1cc(OC)ccc1-c1ccc(CC(NC(=O)[C@H](CC(=O)O)NC(=O)[C@H](CO)NC(=O)[C@@H](NC(=O)C(C)(Cc2ccccc2F)NC(=O)[C@@H](NC(=O)CNC(=O)C(CCC#N)NC(=O)C(C)(C)NC(=O)[C@@H](N)Cc2c[nH]cn2)[C@@H](C)O)[C@H](C)O)C(=O)NC(CCCc2ccccc2F)C(N)=O)cc1 (single isomer, unassigned)")
"Satisfied"
>>> discrete_label("CCc1cc(OC)ccc1-c1ccc(CC(C(=O)N(C)C(CCCc2ccccc2F)C(N)=O)N(C)C(=O)[C@H](CC(=O)O)N(C)C(=O)[C@H](CO)NC(=O)[C@@H](NC(=O)C(C)(Cc2ccccc2F)NC(=O)[C@@H](NC(=O)CNC(=O)C(CCC#N)NC(=O)C(C)(C)NC(=O)[C@@H](N)Cc2c[nH]cn2)[C@H](C)O)[C@H](C)O)cc1 (single isomer, unassigned)")
"Satisfied"
>>> discrete_label("CCc1cc(OC)ccc1-c1ccc(CC(NC(=S)[C@H](CC(=O)O)NC(=O)[C@H](CO)NC(=O)[C@@H](NC(=O)C(C)(Cc2ccccc2F)NC(=O)[C@@H](NC(=O)CNC(=O)C(CCC#N)NC(=O)C(C)(C)NC(=O)[C@@H](N)Cc2c[nH]cn2)[C@H](C)O)[C@H](C)O)C(=S)NC(CCCc2ccccc2F)C(N)=O)cc1 (single isomer, unassigned)")
"Not satisfied"
>>> discrete_label("CCc1cc(OC)ccc1-c1ccc(CC(NC(=O)[C@H](CC(=O)O)NC(=O)[C@H](CO)NC(=O)[C@@H](NC(=O)[C@H](Cc2ccccc2)NC(=O)[C@@H](NC(=O)CNC(=O)C(CCC#N)NC(=O)C(C)(C)NC(=O)[C@@H](N)Cc2c[nH]cn2)[C@@H](C)O)[C@@H](C)O)C(=O)NC(CCCc2cc(C)cc(C)c2)C(N)=O)cc1 (single isomer, unassigned)")
"Not satisfied"
>>> discrete_label("CCc1cc(OC)ccc1-c1ccc(CC(NC(=O)[C@H](CC(=O)O)NC(=O)[C@H](CO)NC(=O)[C@@H](NC(=O)C(C)(Cc2ccccc2F)NC(=O)[C@@H](NC(=O)CNC(=O)C(CCC#N)NC(=O)C(C)(C)NC(=O)[C@H](Cc2c[nH]cn2)NC(=O)OC)[C@@H](C)O)[C@@H](C)O)C(=O)NC(CCCc2ccccc2)C(N)=O)cc1 (single isomer, unassigned)")
"Not satisfied"
